Quick list: GI50 per entry.
- Test system: DLD-1
- methodDescription: NCI tumour cell line growth inhibition, 48 h
Active and inactive are the calls of the source. Cut-off read from the data, not from the text of the source: active = GI50 up to about 1.1 µM and inactive = higher.

Known GI50 results, listed for orientation:
- molecule: "CSc1ccc(OCC2OC2O)cc1 (centres undefined)"
  GI50: "45.7 µM (inactive)"
- molecule: "COC(c1cccc(C(O)(C(F)(F)F)C(F)(F)F)c1)(C(F)(F)F)C(F)(F)F"
  GI50: "20.3 µM (inactive)"
- molecule: "Cc1ccc(Oc2ccccc2N)cc1"
  GI50: "35 µM (inactive)"
- molecule: "Cc1cccc(C)c1NC(=O)CCC(=O)NC(N)=S"
  GI50: "> 100 µM (inactive)"
- molecule: "CC1(C(=O)O)CCOc2ccccc21 (centres undefined)"
  GI50: "> 100 µM (inactive)"

Asked: Kindly state the measured GI50 obtained for C=CCCC12CCCC(=O)C1Sc1ccc3ccccc3c12 (centres undefined) with DLD-1.
Given back: 22.4 µM (inactive)

Asked: Kindly state the measured GI50 obtained for COC(=O)/C([Se]c1c(C)cc(C)cc1C)=C(/[Se]c1c(C)cc(C)cc1C)C(=O)OC with DLD-1.
Given back: > 100 µM (inactive)

Asked: Kindly state the measured GI50 obtained for CC1=C(O)C(=O)[C@@H]2O[C@@H]2C1=O with DLD-1.
Given back: 7.28 µM (inactive)

Asked: Kindly state the measured GI50 obtained for CC(=O)Nc1ccc(C(=O)NN2C(=O)C(Cl)C2c2cc(Br)cc(Br)c2O)cc1 (centres undefined) with DLD-1.
Given back: > 100 µM (inactive)

###

- Test system: LOX IMVI
- methodDescription: NCI tumour cell line growth inhibition, 48 h
Calls of active or inactive are those of the source. Cut-off read from the data, not from the text of the source: active = GI50 up to about 1.1 µM and inactive = higher.
Valid outcomes are listed here; reply with one: Yes = active, No = inactive

Consider the following illustrative entries.
- compound: "O=C(O)c1c(CC(Cc2ccc3c(c2)CCC3)C(=O)O)ccc2c1CCC2 (stereo not drawn)"
  assignedClass: "No"
- compound: "COC(=O)NN1C(C)=C(C(=O)OC)C2(C#N)C(C(=O)OC)=C(C)N(NC(=O)OC)C12N (stereo not drawn)"
  assignedClass: "No"
- compound: "O=C1CCCCc2cccc(O)c21"
  assignedClass: "No"

Asked: Per the assay record, what outcome was assigned to Cc1c(Cl)cccc1NC(=O)CC1C(=O)Nc2ccccc2S1(=O)=O (stereo not drawn) ?
Given back: No

Asked: Per the assay record, what outcome was assigned to Cn1c(=O)c2nc(-c3ccc(Cl)cc3)oc2n(C)c1=O ?
Given back: No

Asked: Per the assay record, what outcome was assigned to COc1ccc(Cc2nc3cc(Cl)ccc3o2)cc1 ?
Given back: No

Asked: Per the assay record, what outcome was assigned to CC1=C(C(=O)Nc2ccccc2)C2(CCCCC2)C(C#N)=C(SCC(=O)Nc2ccc(Br)cc2)N1 ?
Given back: No

###

Quick list: GI50 per entry.
- Tested on: UACC-257
- methodDescription: NCI tumour cell line growth inhibition, 48 h
Calls of active or inactive are those of the source. No stated cut-off is given here; in the data, active = GI50 up to about 1.1 µM and inactive = higher.

Known GI50 results, listed for orientation:
- compound: "C/C=C(\\C)c1cc(O)c(C)c2c1Oc1cc(O)c(Cl)c(C)c1C(=O)O2"
  assayEndpoint: "GI50"
  result: "21.5 µM (inactive)"
- compound: "Cn1c(=O)n2c(-c3ccccc3)c(-c3ccccc3)n2c1=O"
  assayEndpoint: "GI50"
  result: "> 100 µM (inactive)"
- compound: "CCN(CCO)CC1COc2ccccc2O1 (stereo not given)"
  assayEndpoint: "GI50"
  result: "> 100 µM (inactive)"
- compound: "C=C(C(=C)P(=S)(c1ccccc1)c1ccccc1)P(=S)(c1ccccc1)c1ccccc1"
  assayEndpoint: "GI50"
  result: "> 100 µM (inactive)"

Attention now shifts to the item below.
Asked: Consider the compound CCOc1ccc(NC(=O)/C=C/c2ccco2)cc1 and give its measured GI50.
Given back: 72.9 µM (inactive)

###

- System: IGROV-1
- methodDescription: NCI tumour cell line growth inhibition, 48 h
The source made the active and inactive calls. Cut-off read from the data, not from the text of the source: active = GI50 up to about 1.1 µM and inactive = higher.
assayEndpoint: GI50

Known GI50 results, listed for orientation:
- compound: "CN(C)c1ccc(/C=C/C(=O)O)cc1"
  result: "> 100 µM (inactive)"
- compound: "CCCC(=O)N1CCN(c2ccc3c(c2)OC(C)O3)CC1 (configuration not stated)"
  result: "> 100 µM (inactive)"
- compound: "COC(=O)c1ccc(/N=N/N(C)CO)cc1"
  result: "> 100 µM (inactive)"
- compound: "CCOc1c(Cc2ccccc2)c(=O)n2c3ccccc3n3c(=O)n(C)c(=O)c1c23"
  result: "> 100 µM (inactive)"

Asked: Kindly state the measured GI50 obtained for COc1cc2c(c(OC)c1OC)-c1ccc(SC)c(=O)cc1[C@@H](NC(=O)c1ccc(C#N)cc1)CC2 with IGROV-1.
Given back: < 0.01 µM (active)

Asked: Kindly state the measured GI50 obtained for Cc1ccc(SCN2CCCCC2)cc1.O=C(Cl)c1ccc([N+](=O)[O-])cc1 with IGROV-1.
Given back: 3.3 µM (inactive)

###

- System: CCRF-CEM
- methodDescription: NCI tumour cell line growth inhibition, 48 h
Active and inactive are the calls of the source. Cut-off read from the data, not from the text of the source: active = GI50 up to about 1.1 µM and inactive = higher.
Valid outcomes are listed here; reply with one: active, inactive

Consider the following illustrative entries.
- molecule: "O=C(O)CO[C@@]12C#C/C=C\\C#C[C@@H]3N(C(=O)Oc4ccccc4)c4ccccc4[C@]14O[C@@]34CCC2"
  testTarget: "CCRF-CEM"
  assignedClass: "inactive"
- molecule: "Cc1cc(C)n(C2OC(CO)C(O)C(O)C2O)c(=S)c1C#N (stereo not drawn)"
  testTarget: "CCRF-CEM"
  assignedClass: "inactive"
- molecule: "CC(=O)OCCOCNC(=S)N/N=C/c1ccc2ccccc2n1"
  testTarget: "CCRF-CEM"
  assignedClass: "inactive"
- molecule: "CC1=C(Br)C(=O)c2c(O)ccc(O)c2C1=O"
  testTarget: "CCRF-CEM"
  assignedClass: "active"
- molecule: "CCOC(=O)/C(=C/c1ccc(OC)c(OC)c1)C(=O)c1ccccc1"
  testTarget: "CCRF-CEM"
  assignedClass: "inactive"
- molecule: "CC(C)c1cccc(C(C)C)c1NC(=O)C(=O)C1SC(=S)NC1=O (stereo not drawn)"
  testTarget: "CCRF-CEM"
  assignedClass: "inactive"

Asked: Per the assay record, what outcome was assigned to NCCCN(CCCCN(CCCN)C(=O)OCc1ccccc1)C(=O)OCc1ccccc1 ?
Given back: inactive

Asked: Per the assay record, what outcome was assigned to CCCCCCCCCCCCOCCCCCCCCC/C=C/c1ccc2c(c1)OCCOCCOCCOCCO2 ?
Given back: inactive

###

- Test system: LOX IMVI
- methodDescription: NCI tumour cell line growth inhibition, 48 h
Active and inactive are the calls of the source. Rule as the data show it: active = GI50 up to about 1.1 µM and inactive = higher.
Valid outcomes are listed here; reply with one: active, inactive

Consider the following illustrative entries.
- compound: "O=C(Nc1nc(C23CC4CC(CC(C4)C2)C3)cs1)c1cc2cc([N+](=O)[O-])ccc2oc1=O"
  assignedClass: "inactive"
- compound: "CC(=O)OCCOCNC(=S)N/N=C/c1cc([N+](=O)[O-])ccc1O"
  assignedClass: "inactive"
- compound: "Cl[Si]1(Cl)Oc2ccccc2O[Si](Cl)(Cl)Oc2ccccc2O1"
  assignedClass: "inactive"
- compound: "CC[C@H](CO)Nc1nc(NCc2ccccc2)c2ncn(C(C)C)c2n1"
  assignedClass: "inactive"
- compound: "O=C1OC[C@H]2[C@@H]1[C@H]1O[C@@H]2C2=C(CCC2)C1=O"
  assignedClass: "inactive"

Asked: Per the assay record, what outcome was assigned to CCOc1cccc2nc3cccc(C(=O)NCCN(C)C)c3nc12 ?
Given back: active

Asked: Per the assay record, what outcome was assigned to CN1CCN(C(=S)N(C(=O)c2cccs2)c2ccccc2)CC1 ?
Given back: inactive

Asked: Per the assay record, what outcome was assigned to COc1cccc(NC(=O)CC(=O)n2nc(C)c(/N=N/c3ccccc3)c2C)c1 ?
Given back: inactive

Asked: Per the assay record, what outcome was assigned to CCN1C[C@]2(C)CC[C@H](OC)C34C5C[C@@H]6[C@@H](OC)C[C@@](OC)(C5[C@H]6OCc5ccccc5)C(C13)[C@H](OC(C)=O)[C@@H]42 (stereo partly specified) ?
Given back: inactive

Asked: Per the assay record, what outcome was assigned to O=P1(Oc2ccc(Cl)cc2Cl)Oc2cc3ccccc3cc2O1 ?
Given back: inactive

Asked: Per the assay record, what outcome was assigned to Cc1ccccc1NC(=O)CSc1nnc(-c2ccc(/N=C\c3ccc(Cl)cc3)cc2)o1 ?
Given back: inactive

###

- System: IGROV-1
- methodDescription: NCI tumour cell line growth inhibition, 48 h
Activity calls are given as the source filed them. No stated cut-off is given here; in the data, active = GI50 up to about 1.1 µM and inactive = higher.
Quick list: GI50 per entry.

Known GI50 results, listed for orientation:
- compound: "CCC1CC(=O)N(SCC(N)C(=O)O)C1=O (stereo unspecified)"
  result: "> 100 µM (inactive)"
- compound: "Oc1ccc(SCc2cc(O)ccc2O)cc1"
  result: "10.1 µM (inactive)"
- compound: "N/C(=N\\Nc1cccc(Cl)c1)c1cccnc1"
  result: "70.6 µM (inactive)"
- compound: "CC1(C(=O)O)CCOc2ccccc21 (stereo unspecified)"
  result: "> 100 µM (inactive)"
- compound: "COc1ccc(/C=C(\\C#N)c2nc(N)nc(N3N=C(C)CC3(C)C)n2)c(O)c1"
  result: "24 µM (inactive)"

Asked: Consider the compound CC(=O)OCCOCNC(=S)N/N=C/c1cc([N+](=O)[O-])ccc1O and give its measured GI50.
Given back: > 100 µM (inactive)
